Test system: M14 melanoma
TEST METHOD NOTES: NCI-60 one-dose screen, 48 h
CONDITION INFO: 10 µM unless noted
About 83,000 compounds went through this panel and 20% of them were active in at least one assay; those are over-represented in the sample as a whole. The source made the active and inactive calls. The calls were made as follows: active = growth percent below 10; inactive = the rest.
Just give me one of these, please: yes (active), no (inactive)

Just curious, what result did COc1cc(NC(C)CCCN)c2ncccc2c1Oc1ccc(Cl)cc1 (configuration not stated) get here?
no

Just curious, what result did O=[N+]([O-])c1cc(F)c2cccnc2c1O get here?
no

Just curious, what result did O=C1OCC2=C1C(c1ccc(Cl)c(Cl)c1)c1cc3c(cc1N2CCO)CCC3 (configuration not stated) get here?
no

Just curious, what result did Cc1nn(-c2ccc(Cl)cc2)c(=O)n1CCN1CCOCC1 get here?
no

Just curious, what result did CN1CCN(Cc2ccc(NC(=O)c3ccc(C#N)c(C#Cc4cnc(N)c5ncccc45)c3)cc2C(F)(F)F)CC1 get here?
yes

Just curious, what result did Cc1ccc(-c2cnc3sc4ccc(Cl)cc4n23)cc1 get here?
no

Just curious, what result did CC(=O)O[C@H]1[C@H](CC#CC#CC[C@@H]2C[C@]3(C)[C@H]4CC=C5[C@H]6[C@@H](C)[C@H](C)CC[C@]6(C(=O)NCCN(CCN)CCN)CC[C@@]5(C)[C@]4(C)CC[C@H]3C(C)(C)[C@H]2OC(C)=O)C[C@]2(C)[C@H]3CC=C4[C@H]5[C@@H](C)[C@H](C)CC[C@]5(C(=O)NCCN(CCN)CCN)CC[C@@]4(C)[C@]3(C)CC[C@H]2C1(C)C get here?
no

Just curious, what result did O=C(CS)OCC(COC(=O)CS)(COC(=O)CS)COC(=O)CS get here?
no

Just curious, what result did COc1cc(/C=C/C(=O)c2c(C)nc3ccccc3c2C)ccc1OCCCOc1cc2c(cc1OC)C(=O)N1CCC[C@H]1C=N2 get here?
yes

Just curious, what result did COc1ccc(/C(=C\c2ccc3c(c2)OCO3)C(=O)Nc2nc3ccccc3s2)cc1 get here?
no

Just curious, what result did COc1c(B(O)O)cccc1-c1nc2c(F)cc3n[nH]c(C)c3c2c2c1CCCC2 get here?
no

Just curious, what result did CC(=O)[C@@]1(O)[C@H](C)C[C@H]2[C@@H]3C=C(C)C4=Cc5c(cnn5-c5ccccc5)C[C@]4(C)[C@H]3[C@@H](O)C[C@@]21C get here?
no

Just curious, what result did C#CC[C@@H]1C[C@]2(C)[C@H]3CC[C@@H]4[C@H]5C(C(=C)C)CC[C@]5(C(=O)NCCCCCCCCN)CC[C@@]4(C)[C@]3(C)CC[C@H]2C(C)(C)[C@H]1OC(C)=O (some centres not stated) get here?
no

Just curious, what result did CC(=O)c1ccc(Nc2nc(Cl)nc(Oc3c(Cl)cccc3Cl)n2)cc1 get here?
no

Just curious, what result did NC(=O)Nc1ccc2ncnc(Nc3cccc(O)c3)c2c1 get here?
no

Just curious, what result did Clc1ccc2c(c1)-n1cccc1C(c1ccc3ccccc3c1)=NC2 get here?
no

Just curious, what result did CC1(C)C(N(O)C(=O)Nc2ccc(Cl)cc2)N(c2ccc(Cl)cc2)C(=O)N1CC(=O)N/N=C/C=C/c1ccc([N+](=O)[O-])o1 (configuration not stated) get here?
yes

Just curious, what result did C=C1NC(=O)C(C(C)CC)NC(=O)C2CSCC(NC(=O)CCC(=O)O)C(=O)NC(Cc3ccccc3)C(=O)NC(C)C(=O)NC(CC(C)CC)C(=O)NC(C(=O)NC(Cc3ccccc3)C(=O)N3CCCC3C(=O)N2)C(C)OC(=O)C(CO)NC(=O)C(C(O)COC)N(C)C(=O)C(C(C)C)NC(=O)C(CC(C)CC)NC1=O (configuration not stated) get here?
yes

Just curious, what result did O=C1c2ccccc2C2N1CCC1CCc3ccccc3N12 (configuration not stated) get here?
no

Just curious, what result did CC1=NOCC(=O)N1 get here?
no

Just curious, what result did Nc1nc(N)c2cc(CNc3ccc(Cl)c(Cl)c3)ccc2n1 get here?
yes

Just curious, what result did Cc1cc(C)c2c(n1)sc1c(Nc3ccc(Cl)cc3Cl)ncnc12 get here?
yes
